Tested on: thymidine uptake (nucleoside transport, es and ei equilibrative carriers) in L1210 cells
experiment.description: Nucleoside transport inhibition assay (thymidine uptake, rapid mixing technique)
Assay type: cell-based, murine
experimental.conditions: inhibitor 10 μM, no AGP, 100 μM thymidine, L1210
Each record here notes measured % inhibition of thymidine uptake.
Just the number in %, nothing appended.

// worked examples, % inhibition of thymidine uptake included
COCCN(CCOC)c1nc(N2CCCCC2)c2nc(N(CCOC)CCOC)nc(N3CCCCC3)c2n1 ... 86
COc1ccc(CNc2nc(N(CCO)CCO)nc3c(NCc4ccc(OC)cc4)nc(N(CCO)CCO)nc23)cc1 ... 96
COCC(COc1nc(N2CCCCC2)c2nc(OCC(COC)OC)nc(N3CCCCC3)c2n1)OC (stereo not shown) ... 87

Now consider a different molecule.
Problem: For CC1(C)OCC(COc2nc(N3CCCCC3)c3nc(OCC4COC(C)(C)O4)nc(N4CCCCC4)c3n2)O1 (stereo not shown) , what is its reported % inhibition of thymidine uptake?
Result: 87
